Tested on: EHV-1
assay: EHV-1-specific qPCR of virus release into culture medium
Format: cell-based, equine herpesvirus 1
condition_label: Equus caballus
metric: pEC50
Answers are plain numbers, as −log10 of the molar value.

Lookup result for `CN(C)C(=O)Cn1cc(-c2ccc(-c3cncc4ccccc34)cc2)cn1` ; measured pEC50: 7.70

* * *

Hi there, I'd appreciate the recorded EC50 for every entry that follows.
Tested on: SARS-CoV-2 d6-YFP
condition_label: read-out: Antiviral mean EC50 based on YFP measurements; SARS-CoV-2 d6-YFP; Caco-2; […]

Below, each entry is followed by its recorded EC50 result.
- smiles: "O=c1nc(NO)ccn1[C@@H]1O[C@H](CO)[C@@H](O)[C@H]1O"
  recorded_value: "4.1 µM"
- smiles: "Cc1n[nH]c2ncc(C(=O)N3CCC[C@H]3c3ccc(Cl)cc3)cc12"
  recorded_value: "≥ 15.4 µM"

Consider now this further molecule.
Lookup result for `Cn1ncc2cc(-c3cnc(N)c(Cl)c3N3CCC4(CCNC4=O)CC3)ccc21` ; measured EC50: ≥ 15.4 µM

* * *

Tested on: 293T-tdTom-Luc cells
metric: CC50 (µM)
Answers are plain numbers, in µM.

Lookup result for `Cn1ncc2cc(-c3cnc(N)c(Cl)c3N3CCC4(CCNC4=O)CC3)ccc21` ; measured CC50: 95.3

* * *

Test system: Epstein–Barr virus P3HR-1
assay: EBV lytic assay in TPA-induced P3HR-1 cells, qPCR
Assay type: cell-based
condition_label: human gammaherpesvirus 4, P3HR-1, 240 h, read-out: Antiviral mean EC50 based on qPCR measurements
metric: pEC50
One number for each entry, as −log10 of the molar value.

Lookup result for CC(C)OC(=O)[C@H](C)N[P@](=O)(CO[C@H](C)Cn1cnc2c(N)ncnc21)Oc1ccccc1 [TAF, tenofovir alafenamide] ; measured pEC50: 5.74

* * *

assay: in vitro
condition_label: human, CC50
Hi there, I'd appreciate the recorded CC50 for every entry that follows.

- smiles: "Nc1nc(O)c2ncn(COC(CO)CO)c2n1"
  recorded_value: "> 50 µM"

Consider now this further compound.
Lookup result for `Nc1nc2c(ncn2COCCO)c(=O)[nH]1` ; measured CC50: > 100 µM

* * *

assay: in vitro
condition_label: human, mean CC50
metric: CC50

Lookup result for `Nc1nc(O)c2ncn(COC(CO)CO)c2n1` ; measured CC50: > 100 µM

* * *

Test system: SARS-CoV-2 d6-YFP
assay: microbe, parasite or virus in culture
condition_label: Severe acute respiratory syndrome coronavirus 2, Caco-2, 30 h, read-out: Antiviral mean EC50 based on YFP measurements
metric: EC50

Lookup result for `CN(C)C(=O)Cn1cc(-c2ccc(-c3cncc4ccccc34)cc2)cn1` ; measured EC50: ≥ 15.4 µM

* * *

Hi there, I'd appreciate the recorded CC50 at 7 d for every entry that follows.
assay: Neutral Red uptake cell viability assay, Vero
condition_label: African green monkey, CC50, Vero (Fig 4F)

Below, each entry is followed by its recorded CC50 at 7 d result.
- smiles: "CCCCCCCCCCCCCCCCOCCCOP(=O)(O)CO[C@H](CO)Cn1ccc(N)nc1=O"
  CC50 at 7 d: "> 10 µM"
- smiles: "O=C(O)P(=O)(O)O"
  CC50 at 7 d: "> 1000 µM"
- smiles: "CN(C)C(=O)Cn1cc(-c2ccc(-c3cncc4ccccc34)cc2)cn1"
  CC50 at 7 d: "> 100 µM"

Consider now this further compound.
Lookup result for `CC(C)Nc1nc2cc(Cl)c(Cl)cc2n1[C@H]1O[C@@H](CO)[C@H](O)[C@@H]1O` ; measured CC50 at 7 d: > 1000 µM

* * *

subject_of_test: MHV-68-Luc
assay: MHV-68-Luc luciferase reporter assay
Assay type: cell-based, murine herpesvirus 68
condition_label: Table S1; COS-7; read-out: antiviral EC50, MHV-68 (COS-7)
metric: EC50 (nM)
Numbers only, in nM.

Lookup result for `Cn1ncc2cc(-c3cnc(N)c(Cl)c3N3CCC4(CCNC4=O)CC3)ccc21` ; measured EC50: 0.5

* * *

Hi there, I'd appreciate the recorded CC50 at 4 d for every entry that follows.
assay: Neutral Red uptake cell viability assay, COS-7
condition_label: African green monkey, CC50, COS-7 (Fig 4F)

- smiles: "CCCCCCCCCCCCCCCCOCCCOP(=O)(O)CO[C@H](CO)Cn1ccc(N)nc1=O"
  CC50 at 4 d: "> 10 µM"
- smiles: "CC(C)Nc1nc2cc(Cl)c(Cl)cc2n1[C@H]1O[C@@H](CO)[C@H](O)[C@@H]1O"
  CC50 at 4 d: "> 100 µM"

Lookup result for `CN(C)C(=O)Cn1cc(-c2ccc(-c3cncc4ccccc34)cc2)cn1` ; measured CC50 at 4 d: > 100 µM

* * *

Test system: HCMV TB40-YFP
assay: HCMV time-of-addition reporter assay in HFFs, TB40-YFP
condition_label: read-out: TB40-YFP EC50, drug addition 2 d p.i., readout 7 d p.i.
metric: EC50

Lookup result for `Cn1ncc2cc(-c3cnc(N)c(Cl)c3N3CCC4(CCNC4=O)CC3)ccc21` ; measured EC50: > 0.05 µM
